Target: Human immunodeficiency virus type 1 integrase (Human immunodeficiency virus 1)
Sequence (Q7ZJM1 whole entry): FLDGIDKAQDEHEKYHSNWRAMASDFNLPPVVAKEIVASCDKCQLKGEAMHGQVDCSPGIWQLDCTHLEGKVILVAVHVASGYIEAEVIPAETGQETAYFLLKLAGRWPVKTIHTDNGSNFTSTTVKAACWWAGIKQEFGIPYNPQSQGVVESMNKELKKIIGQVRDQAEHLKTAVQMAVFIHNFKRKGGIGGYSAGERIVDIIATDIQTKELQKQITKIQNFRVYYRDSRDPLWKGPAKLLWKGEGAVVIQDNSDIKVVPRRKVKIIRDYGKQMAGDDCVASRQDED
Test: Inhibition of recombinant HIV1 integrase strand transfer activity using immobilized DNA substrate
endpoint_name: pIC50
pIC50 here is simply -log10 of the concentration when that concentration is written in mol/L.

Enquiry: # lookup: pIC50 of CCN1CC(c2nc(C(=O)NCc3ccc(F)cc3)c(O)c3ncccc23)CC1=O (configuration not stated)
Return: 7.85

Enquiry: Do the same for O=C1CC(c2nc(C(=O)NCc3ccc(F)cc3)c(O)c3ncccc23)CN1 (configuration not stated) please
Return: 7.62

Enquiry: Do the same for CN1CC(c2nc(C(=O)NCc3ccc(F)cc3)c(O)c3ncccc23)CC1=O (configuration not stated) please
Return: 7.70

Enquiry: Do the same for CN(C)C(=O)CN1CC(c2nc(C(=O)NCc3ccc(F)cc3)c(O)c3ncccc23)CC1=O (configuration not stated) please
Return: 7.48

Enquiry: Do the same for CCN1CC(c2nc(C(=O)NCc3ccc(F)cc3S(C)(=O)=O)c(O)c3ncccc23)CC1=O (configuration not stated) please
Return: 7.59

Enquiry: Do the same for CN1CC(c2nc(C(=O)NCc3ccc(F)cc3S(C)(=O)=O)c(O)c3ncccc23)CC1=O (configuration not stated) please
Return: 6.91

Enquiry: Do the same for CC(C)N1CC(c2nc(C(=O)NCc3ccc(F)cc3)c(O)c3ncccc23)CC1=O (configuration not stated) please
Return: 7.40

###

Experiment: Clearance in rat at 2 mg/kg, iv
Type: ADME, organism-based
Parameters: dose 2 mg/kg, route intravenous
Details: in vivo
endpoint_name: clearance (mL/min/kg)
Write the value in mL/min/kg as a bare number.

Enquiry: # lookup: clearance of CN(C)C(=O)CN1CC(c2nc(C(=O)NCc3ccc(F)cc3)c([O-])c3ncccc23)CC1=O.[Na+] (stereo not drawn)
Return: 23.4

Enquiry: Do the same for CN1CC(c2nc(C(=O)NCc3ccc(F)cc3)c([O-])c3ncccc23)CC1=O.[Na+] (stereo not drawn) please
Return: 2.5

Enquiry: Do the same for CN1CC(c2nc(C(=O)NCc3ccc(F)cc3S(C)(=O)=O)c(O)c3ncccc23)CC1=O (stereo not drawn) please
Return: 17.2

###

For each record, write down the corresponding fraction unbound.
Experiment: Protein binding in human plasma at pH 7.4
Assay type: ADME, cell-free
Conditions: read-out: PPB (converted)
Returns: the value as a bare number; no unit string appended.

Enquiry: # lookup: fraction unbound of O=C(NCc1ccc(F)cc1)c1ncc2cccnc2c1O
Return: 0.008

Enquiry: Do the same for CN(C)C(=O)CN1CC(c2nc(C(=O)NCc3ccc(F)cc3)c(O)c3ncccc23)CC1=O (configuration not stated) please
Return: 0.052

Enquiry: Do the same for CCN1CC(c2nc(C(=O)NCc3ccc(F)cc3)c(O)c3ncccc23)CC1=O (configuration not stated) please
Return: 0.011

Enquiry: Do the same for CN1CC(c2nc(C(=O)NCc3ccc(F)cc3S(C)(=O)=O)c(O)c3ncccc23)CC1=O (configuration not stated) please
Return: 0.03

Enquiry: Do the same for CC(C)N1CC(c2nc(C(=O)NCc3ccc(F)cc3)c(O)c3ncccc23)CC1=O (configuration not stated) please
Return: 0.022

Enquiry: Do the same for CN1CC(c2nc(C(=O)NCc3ccc(F)cc3)c(O)c3ncccc23)CC1=O (configuration not stated) please
Return: 0.012

Enquiry: Do the same for CCN1CC(c2nc(C(=O)NCc3ccc(F)cc3S(C)(=O)=O)c(O)c3ncccc23)CC1=O (configuration not stated) please
Return: 0.04
